pIC50 listing for selected molecules.
System: Vero
Assay: Cytotoxicity against African green monkey Vero cells after 48 hrs by MTT assay
Format: cell-based
Settings: Chlorocebus sabaeus
Where a name gives a salt, the structure may show the parent alone.
Formally, pIC50 is defined as -log10 of the concentration c, with c in mol/L.

Study these solved cases before continuing.
CCN(CC)CC(O)COc1ccc2c(c1)C(=O)c1cc(OCC(O)CN(CC)CC)ccc1-2 (stereo not given) ... 4.31
CCN(CC)CCOc1ccc2c(c1)C(=O)c1cc(OCCN(CC)CC)ccc1-2 [TILORONE HYDROCHLORIDE] ... 4.05
CN(C)CCCOc1ccc(-c2coc3cc(OCCCN(C)C)ccc3c2=O)cc1 ... 4.46
CC(C)(C)NCCOc1ccc2c(c1)C(=O)c1cc(OCCNC(C)(C)C)ccc1-2 ... 4.60

q: Note pIC50 for the molecule shown: CN(C)CC(O)COc1ccc2c(c1)C(=O)c1cc(OCC(O)CN(C)C)ccc1-2 (stereo not given)
a: 4.68
